tested-system: EF-Tu
Construct: gene tufA; full-length, His-tagged (pET-His-EF-Tu), expressed in E. coli BL21(DE3), nucleotide-free, unphosphorylated
experimental-protocol: ITC
Assay type: binding, Escherichia coli
measurement-setup: 20 °C, 50 mM Hepes pH 7.4, 40 mM NH4Cl, 2 mM MgCl2, 1 mM TCEP, nucleotide-free protein; read-out: affinity
endpoint-label: pKd
Friendly reminder that pKd comes from taking -log10 of the concentration in mol/L.

{"molecule": "Nc1nc2c(ncn2[C@@H]2O[C@H](COP(=O)(O)OP(=O)(O)OP(O)(O)=S)[C@@H](O)[C@H]2O)c(=O)[nH]1 [GTPγS, guanosine-5′-(γ-thio)-triphosphate]", "pKd": 7.09}

# input What does the record list as pKd for Nc1nc2c(ncn2[C@@H]2O[C@H](COP(=O)(O)OP(=O)(O)O)[C@@H](O)[C@H]2O)c(=O)[nH]1 ?
# output 8.35
